From: paper PMC5394417

Biological target: HA-F821A CaSR mutant (Rattus norvegicus, UniProt P48442, F821A)
Construct: mGluR5 signal peptide (N); expressed in transfected cells; host or cells: HEK293T
Test: IP-One assay, HEK293T transiently transfected
Format: cell-based
Details: Ca^2+ with 5 μM NPS 2143
Experimental: Human embryonic kidney (HEK) 293T cells were cultured in DMEM supplemented with 10% dFBS and 1% P/S at 37 °C and 5% CO2. 48 h prior to assay, transient transfection was performed using Lipofectamine 2000 as the transfection reagent. […] Functional activity was measured using the IP-One assay, which is an IP1 accumulation assay. […] The 384-well plate was incubated for 1 h at RT in dark before being measured on an EnVision plate reader (PerkinElmer, Waltham, MA, USA). […]
measured_metric: EC50

• [Ca+2] = 5.72 mM

====

Target: HA-S147A/S170A CaSR mutant (Rattus norvegicus, UniProt P48442, S147A/S170A)
Construct: mGluR5 signal peptide (N)
Sequence (P48442 20-1079 S147A/S170A): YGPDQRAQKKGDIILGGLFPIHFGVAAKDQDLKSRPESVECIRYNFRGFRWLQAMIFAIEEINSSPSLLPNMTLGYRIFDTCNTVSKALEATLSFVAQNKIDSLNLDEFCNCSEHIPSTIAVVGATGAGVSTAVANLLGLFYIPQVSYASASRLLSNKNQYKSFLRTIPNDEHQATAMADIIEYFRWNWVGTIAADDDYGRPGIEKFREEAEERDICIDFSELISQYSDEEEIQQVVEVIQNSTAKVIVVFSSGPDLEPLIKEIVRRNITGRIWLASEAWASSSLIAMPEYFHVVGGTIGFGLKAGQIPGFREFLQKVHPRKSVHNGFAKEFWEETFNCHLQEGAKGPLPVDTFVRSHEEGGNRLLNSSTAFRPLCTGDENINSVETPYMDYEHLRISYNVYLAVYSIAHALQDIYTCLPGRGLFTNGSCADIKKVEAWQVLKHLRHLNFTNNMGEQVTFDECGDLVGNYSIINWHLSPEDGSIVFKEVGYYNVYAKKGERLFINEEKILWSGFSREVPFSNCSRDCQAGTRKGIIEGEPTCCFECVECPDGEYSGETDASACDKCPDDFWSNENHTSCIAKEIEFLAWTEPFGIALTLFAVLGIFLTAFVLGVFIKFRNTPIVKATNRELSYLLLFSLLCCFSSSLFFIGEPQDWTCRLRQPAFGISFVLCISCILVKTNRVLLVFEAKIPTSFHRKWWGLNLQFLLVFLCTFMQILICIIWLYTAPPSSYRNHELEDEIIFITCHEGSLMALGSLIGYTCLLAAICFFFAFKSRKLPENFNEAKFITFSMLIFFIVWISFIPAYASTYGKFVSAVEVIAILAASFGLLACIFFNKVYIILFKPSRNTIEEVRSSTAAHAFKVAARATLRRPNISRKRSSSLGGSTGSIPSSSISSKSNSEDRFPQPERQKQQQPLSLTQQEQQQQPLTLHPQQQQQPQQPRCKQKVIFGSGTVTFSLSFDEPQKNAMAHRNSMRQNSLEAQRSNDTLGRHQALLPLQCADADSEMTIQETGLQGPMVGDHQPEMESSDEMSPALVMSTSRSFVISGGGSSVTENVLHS
Test: IP-One assay, HEK293T transiently transfected
Conditions: Ca^2+ alone
measured_metric: EC50 (mM)

* [Ca+2] | 9.04

====

Target: HA-CaSR WT + myc CaSR-WT (Rattus norvegicus, UniProt P48442)
Construct: mGluR5 signal peptide (N)
Sequence (P48442 20-1079) 1: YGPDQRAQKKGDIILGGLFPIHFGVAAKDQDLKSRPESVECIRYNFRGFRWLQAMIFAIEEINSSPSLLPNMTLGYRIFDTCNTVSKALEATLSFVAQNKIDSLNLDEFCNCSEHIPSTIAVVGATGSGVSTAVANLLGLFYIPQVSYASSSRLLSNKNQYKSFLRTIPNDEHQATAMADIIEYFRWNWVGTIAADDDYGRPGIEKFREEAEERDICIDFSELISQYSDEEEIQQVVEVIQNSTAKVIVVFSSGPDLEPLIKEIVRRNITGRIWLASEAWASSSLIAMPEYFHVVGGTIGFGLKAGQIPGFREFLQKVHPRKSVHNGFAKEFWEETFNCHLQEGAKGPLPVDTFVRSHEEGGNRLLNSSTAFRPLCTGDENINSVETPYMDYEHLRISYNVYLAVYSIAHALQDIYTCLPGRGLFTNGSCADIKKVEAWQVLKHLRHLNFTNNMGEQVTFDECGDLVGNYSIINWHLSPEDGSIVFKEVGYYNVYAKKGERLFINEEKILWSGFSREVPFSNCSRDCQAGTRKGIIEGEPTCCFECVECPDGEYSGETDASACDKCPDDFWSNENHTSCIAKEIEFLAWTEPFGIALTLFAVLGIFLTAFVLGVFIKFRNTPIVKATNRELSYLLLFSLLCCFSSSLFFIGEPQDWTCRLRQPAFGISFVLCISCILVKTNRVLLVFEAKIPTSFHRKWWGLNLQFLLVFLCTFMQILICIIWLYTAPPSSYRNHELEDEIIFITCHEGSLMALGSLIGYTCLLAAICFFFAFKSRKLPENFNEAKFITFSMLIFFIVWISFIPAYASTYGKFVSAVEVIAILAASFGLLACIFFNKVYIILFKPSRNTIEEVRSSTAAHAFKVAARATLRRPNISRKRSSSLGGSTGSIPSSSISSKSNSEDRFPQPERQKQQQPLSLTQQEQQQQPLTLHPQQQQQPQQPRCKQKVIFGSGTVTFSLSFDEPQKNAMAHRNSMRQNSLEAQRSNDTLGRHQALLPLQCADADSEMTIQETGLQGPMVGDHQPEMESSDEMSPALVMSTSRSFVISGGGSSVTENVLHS
Sequence (P48442 20-1079) 2: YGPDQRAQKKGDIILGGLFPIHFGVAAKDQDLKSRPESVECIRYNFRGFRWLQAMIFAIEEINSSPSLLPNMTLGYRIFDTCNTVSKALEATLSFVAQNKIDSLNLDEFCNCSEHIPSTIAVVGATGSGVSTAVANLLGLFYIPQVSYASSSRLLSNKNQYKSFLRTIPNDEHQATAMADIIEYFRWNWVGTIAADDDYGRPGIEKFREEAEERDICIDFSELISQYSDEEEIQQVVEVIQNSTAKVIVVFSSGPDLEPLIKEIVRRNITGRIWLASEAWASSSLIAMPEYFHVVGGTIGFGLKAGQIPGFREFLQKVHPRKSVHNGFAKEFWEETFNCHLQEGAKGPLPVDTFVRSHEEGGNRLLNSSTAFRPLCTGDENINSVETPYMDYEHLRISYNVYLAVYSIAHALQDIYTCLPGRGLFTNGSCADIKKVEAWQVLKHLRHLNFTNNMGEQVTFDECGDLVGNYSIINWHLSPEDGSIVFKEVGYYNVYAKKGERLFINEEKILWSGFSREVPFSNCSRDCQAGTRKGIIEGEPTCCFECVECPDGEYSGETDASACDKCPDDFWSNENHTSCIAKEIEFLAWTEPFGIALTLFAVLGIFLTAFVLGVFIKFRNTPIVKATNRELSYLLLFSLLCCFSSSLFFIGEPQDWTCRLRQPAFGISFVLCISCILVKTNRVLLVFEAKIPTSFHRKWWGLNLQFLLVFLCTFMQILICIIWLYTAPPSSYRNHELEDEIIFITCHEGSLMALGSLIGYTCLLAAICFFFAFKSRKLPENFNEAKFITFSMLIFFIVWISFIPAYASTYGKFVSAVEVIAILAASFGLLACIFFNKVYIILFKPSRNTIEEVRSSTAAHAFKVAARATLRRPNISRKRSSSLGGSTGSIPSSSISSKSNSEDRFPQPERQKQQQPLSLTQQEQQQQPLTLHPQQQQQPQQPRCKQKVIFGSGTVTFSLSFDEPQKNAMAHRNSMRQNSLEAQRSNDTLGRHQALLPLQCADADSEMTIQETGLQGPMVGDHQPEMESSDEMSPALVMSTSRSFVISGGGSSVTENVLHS
Experiment: IP-One assay, co-expression 1:1 in HEK293T
Conditions: Ca^2+ alone
measured_metric: EC50 (mM)

- [Ca+2]: 2.98

====

Molecular target: HA-F684A CaSR mutant (Rattus norvegicus, UniProt P48442, F684A)
Construct: mGluR5 signal peptide (N); expressed in transfected cells; host or cells: HEK293T
Test: IP-One assay, HEK293T transiently transfected
Type: cell-based
Details: Ca^2+ alone
pEC50: −log10 of the molar value.
measured_metric: pEC50

- [Ca+2]: 2.18

====

Molecular target: HA-CaSR WT (Rattus norvegicus)
Construct: mGluR5 signal peptide (N); expressed in transfected cells; host or cells: HEK293T
Test: IP-One assay (IP1 accumulation, Gq signaling), HEK293T transiently transfected
Format: cell-based
Conditions: Ca^2+ with 1 μM NPS R-568
Method: Human embryonic kidney (HEK) 293T cells were cultured in DMEM supplemented with 10% dFBS and 1% P/S at 37 °C and 5% CO2. 48 h prior to assay, transient transfection was performed using Lipofectamine 2000 as the transfection reagent. […] Functional activity was measured using the IP-One assay, which is an IP1 accumulation assay. […] The 384-well plate was incubated for 1 h at RT in dark before being measured on an EnVision plate reader (PerkinElmer, Waltham, MA, USA). […]
pEC50: −log10 of the molar value.
measured_metric: pEC50

• [Ca+2] = 2.89
